Exercise: for every item that follows, state its recorded apparent Kd (screen).
Biological target: T1, TNFR1 (Homo sapiens, UniProt P19438)
T1 chain: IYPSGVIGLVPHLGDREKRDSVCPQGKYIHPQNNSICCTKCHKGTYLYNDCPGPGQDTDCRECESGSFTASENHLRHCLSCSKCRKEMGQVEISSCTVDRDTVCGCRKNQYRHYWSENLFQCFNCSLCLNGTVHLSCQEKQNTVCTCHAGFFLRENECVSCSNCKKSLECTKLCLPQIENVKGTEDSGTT
Assay: yeast display SC50
Give bare numbers, in nM.

{"binder": "R21K (designed binder) MTLQELLREEALRRAEAEAFKYALELLAEKFPEQKEYLLDLAEEIESQIRSLSGVDVEDVRKFLDKEWAWVKELLAEHPAELAEVEAARAARLAELRAEVEAKVAA", "units_label": "nM", "apparent Kd (screen)": 0.593}

Continue with the binder presented below.
Consider the binder E18N (designed binder) MTLQELLREEALRRAEANAFRYALELLAEKFPEQKEYLLDLAEEIESQIRSLSGVDVEDVRKFLDKEWAWVKELLAEHPAELAEVEAARAARLAELRAEVEAKVAA and give its measured apparent Kd (screen). 0.49

Where do the numbers come from? From paper PMC12416549.
